System: KB
method_summary: Antiproliferative activity against human KB cells assessed as reduction in cell viability after 72 hrs by MTS assay
Format: functional, cell-based
pIC50: −log10 of the molar value.
readout_kind: pIC50

Please review the entries below; each comes with its answer.
>  <compound>
C/C(=C\c1csc(C)n1)[C@@H]1C[C@@H]2O[C@]2(C)CCC[C@H](C)[C@H](O)[C@@H](C)C(=O)C(C)(C)[C@@H](O)CC(=O)N1 [IXABEPILONE]

>  <readout_kind>
pIC50

>  <observed_result>
8.10

$$$$
>  <compound>
CCOC(=O)c1ccc2[nH]c(-c3cccc(F)c3)cc(=O)c2c1

>  <readout_kind>
pIC50

>  <observed_result>
7.47

$$$$

1: CCOC(=O)c1ccc2nc(-c3ccccc3)cc(O)c2c1
2: CC[C@]1(O)C[C@H]2CN(CCc3c([nH]c4ccccc34)[C@@](C(=O)OC)(c3cc4c(cc3OC)N(C=O)[C@H]3[C@@](O)(C(=O)OC)[C@H](OC(C)=O)[C@]5(CC)C=CCN6CC[C@]43[C@@H]65)C2)C1 [VINCRISTINE]
Task item: Could you check which of 1 and 2 has a smaller value for pIC50? Your answer should be the label of the entry you select.
Reply: 1
(1: 7.43, 2: 8.30)

----------
Tested on: SK-OV-3
method_summary: Antiproliferative activity against human SKOV3 cells assessed as reduction in cell viability after 72 hrs by MTS assay
Assay type: functional, cell-based
condition_set: SK-OV-3, 72 h
readout_kind: IC50 (nM)
The reply should be a number in nM, with the unit left off.

Task item: Query the reported IC50 for SK-OV-3; item: CCOC(=O)c1ccc2nc(-c3ccccc3)cc(O)c2c1
Reply: 50

----------
method_summary: Antiproliferative activity against human KB/VCR cells assessed as reduction in cell viability after 72 hrs by MTS assay
Assay type: functional, cell-based
# IC50 per entry
The reply should be a number in nM, with the unit left off.

Please review the entries below; each comes with its answer.
>  <compound>
CCOC(=O)c1ccc2[nH]c(-c3cccc(F)c3)cc(=O)c2c1

>  <IC50 / nM>
35

$$$$
>  <compound>
CC[C@]1(O)C[C@H]2CN(CCc3c([nH]c4ccccc34)[C@@](C(=O)OC)(c3cc4c(cc3OC)N(C=O)[C@H]3[C@@](O)(C(=O)OC)[C@H](OC(C)=O)[C@]5(CC)C=CCN6CC[C@]43[C@@H]65)C2)C1

>  <IC50 / nM>
817

$$$$
>  <compound>
CC(=O)O[C@H]1C(=O)[C@@]2(C)[C@H]([C@H](OC(=O)c3ccccc3)[C@]3(O)C[C@H](OC(=O)[C@H](O)[C@@H](NC(=O)c4ccccc4)c4ccccc4)C(C)=C1C3(C)C)[C@]1(OC(C)=O)CO[C@@H]1C[C@@H]2O

>  <IC50 / nM>
708

$$$$
>  <compound>
C/C(=C\c1csc(C)n1)[C@@H]1C[C@@H]2O[C@]2(C)CCC[C@H](C)[C@H](O)[C@@H](C)C(=O)C(C)(C)[C@@H](O)CC(=O)N1 [IXABEPILONE]

>  <IC50 / nM>
193

$$$$

Lab note: next compound to report on.
Task item: Data request, read-out IC50, for CCOC(=O)c1ccc2nc(-c3ccccc3)cc(O)c2c1
Reply: 37
